System: 997537-175-T-J1-PDC complex spheroid viability
Assay: Anticancer human tumor 997537-175-T-J1-PDC patient-derived colon adenocarcinoma cell line growth inhibition [GQUAD]
Settings: second compound 1 µM; first compound 1 µM; active compounds read low
Some compounds, each annotated with its measured viability, T/C.
Give your result in % as a bare value.

compound	observed
C#Cc1c(F)ccc2cc(O)cc(-c3ncc4c(N5CC6CCC(C5)N6)nc(OCC56CCCN5CC(F)C6)nc4c3F)c12 (stereo not given) + Cc1cnc(CNC(=O)c2c(=O)c3ccc(N4CCCN(C)CC4)nc3n3c2sc2ccccc23)cn1	98
COc1cc(C2c3cc4c(cc3C(OC3OC5COC(C)OC5C(O)C3O)C3COC(=O)C23)OCO4)cc(OC)c1O (stereo not given) + CN(C)c1ccc(Nc2c3ccc(NC(=O)CCN4CCCC4)cc3nc3cc(NC(=O)CCN4CCCC4)ccc23)cc1	75.1
C=CC(=O)N1CCN(c2nc(=O)n(-c3c(C)ccnc3C(C)C)c3nc(-c4c(O)cccc4F)c(F)cc23)C(C)C1 (stereo not given) + Cc1[nH]c2ccc(F)cc2c1-c1nc2c3cccnc3c3ncccc3c2[nH]1	83.2
C#Cc1c(F)ccc2cc(O)cc(-c3ncc4c(N5CC6CCC(C5)N6)nc(OCC56CCCN5CC(F)C6)nc4c3F)c12 (stereo not given) + Cc1[nH]c2ccc(F)cc2c1-c1nc2c3cccnc3c3ncccc3c2[nH]1	56.9
CC1COCCN1c1cc(C2(O)CC3CCC(C2)O3)c2cnn(-c3ccn[nH]3)c2n1 (stereo not given) + Cc1[nH]c2ccc(F)cc2c1-c1nc2c3cccnc3c3ncccc3c2[nH]1	40.8

Recorded viability, T/C of COc1cccc2c1C(=O)c1c(O)c3c(c(O)c1C2=O)CC(O)(C(=O)CO)CC3OC1CC(N)C(O)C(C)O1 (stereo not given) + Cc1cnc(CNC(=O)c2c(=O)c3ccc(N4CCCN(C)CC4)nc3n3c2sc2ccccc23)cn1 , please.
106

Entry to check: Cc1cccc(N(C)C(=O)C2C(O)CCN2c2nc(C)cc(C(F)(F)F)c2C#N)c1 (stereo not given) + CN(C)c1ccc(Nc2c3ccc(NC(=O)CCN4CCCC4)cc3nc3cc(NC(=O)CCN4CCCC4)ccc23)cc1
81.2

Entry to check: CCCS(=O)(=O)Nc1ccc(F)c(C(=O)c2c[nH]c3ncc(-c4ccc(Cl)cc4)cc23)c1F + Cc1[nH]c2ccc(F)cc2c1-c1nc2c3cccnc3c3ncccc3c2[nH]1
73.4

Entry to check: C=CCn1c(=O)c2cnc(Nc3ccc(N4CCN(C)CC4)cc3)nc2n1-c1cccc(C(C)(C)O)n1 + CN(C)c1ccc(Nc2c3ccc(NC(=O)CCN4CCCC4)cc3nc3cc(NC(=O)CCN4CCCC4)ccc23)cc1
75.8

Entry to check: CC(C)n1c(=O)n(C)c2cnc3cc(F)c(-c4ccc(OCCCN5CCCCC5)nc4)cc3c21 + Cc1cnc(CNC(=O)c2c(=O)c3ccc(N4CCCN(C)CC4)nc3n3c2sc2ccccc23)cn1
80

* * *

System: 997537-175-T-J1-PDC complex spheroid viability
Test: Anticancer human tumor 997537-175-T-J1-PDC cell line growth inhibition [GQUAD];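 note: spheroids exposed to the agents for 7 days; 100% = DMSO vehicle control viability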
Conditions: second compound 0.0316 µM; first compound 0.0999 µM; active compounds read low
observation-type: viability, T/C (%)
Give your result in % as a bare value.

Please review the entries below; each comes with its answer.
molecule	output-unit	observed
CCc1c2c(nc3ccc(O)cc13)-c1cc3c(c(=O)n1C2)COC(=O)[C@]3(O)CC + CN(C)c1ccc(Nc2c3ccc(NC(=O)CCN4CCCC4)cc3nc3cc(NC(=O)CCN4CCCC4)ccc23)cc1	%	6.84
Cc1[nH]c2ccccc2c1CCNCc1ccc(/C=C/C(=O)NO)cc1 + CN(C)c1ccc(Nc2c3ccc(NC(=O)CCN4CCCC4)cc3nc3cc(NC(=O)CCN4CCCC4)ccc23)cc1	%	77.2
Cn1ncnc1[C@H]1c2n[nH]c(=O)c3cc(F)cc(c23)N[C@@H]1c1ccc(F)cc1 + Cc1cnc(CNC(=O)c2c(=O)c3ccc(N4CCCN(C)CC4)nc3n3c2sc2ccccc23)cn1	%	76.9

Recorded viability, T/C of CC[C@@]1(O)C(=O)OCc2c1cc1n(c2=O)Cc2cc3c(CN(C)C)c(O)ccc3nc2-1 + CN(C)c1ccc(Nc2c3ccc(NC(=O)CCN4CCCC4)cc3nc3cc(NC(=O)CCN4CCCC4)ccc23)cc1 , please.
82.5

Entry to check: Cc1[nH]c2ccccc2c1CCNCc1ccc(/C=C/C(=O)NO)cc1 + Cc1cnc(CNC(=O)c2c(=O)c3ccc(N4CCCN(C)CC4)nc3n3c2sc2ccccc23)cn1
82.2
